// provenance: patent US10370343B2

molecules and their reported pIC50
# experimental.system: Recombinant N-terminal GST tag full-length human HDAC8 (Homo sapiens, UniProt Q9BY41)
# Construct: Recombinant N-terminal GST tag full-length human HDAC8; purchased SignalChem H90-30G-1000; host or cells: baculovirus in Sf9 insect cells
# Sequence (Q9BY41 1-377): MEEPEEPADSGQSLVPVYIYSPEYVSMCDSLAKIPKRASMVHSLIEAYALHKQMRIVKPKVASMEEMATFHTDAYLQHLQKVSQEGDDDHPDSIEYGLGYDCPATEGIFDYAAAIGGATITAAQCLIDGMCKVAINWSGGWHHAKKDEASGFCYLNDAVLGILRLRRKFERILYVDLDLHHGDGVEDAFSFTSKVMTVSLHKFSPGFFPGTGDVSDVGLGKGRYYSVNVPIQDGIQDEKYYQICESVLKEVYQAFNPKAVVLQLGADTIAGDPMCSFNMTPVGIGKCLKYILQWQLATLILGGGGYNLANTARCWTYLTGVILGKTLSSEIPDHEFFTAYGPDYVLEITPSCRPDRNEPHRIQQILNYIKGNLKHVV
# experimental.details: HDAC8 probe binding assay, time resolved fluorescence (TRF) format
# conditions: compounds grouped by IC50 range (Table 2)
pIC50: −log10 of the molar value.

Solved cases (4 shown):
[
  {
    "molecule": "COc1ccc(CN2C(=O)COc3ccc(C(=O)NO)cc32)c(F)c1F",
    "pIC50": "≥ 7.60"
  },
  {
    "molecule": "Cc1ccc2nc(CN3C(=O)C(C)(C)Oc4ccc(C(=O)NO)cc43)oc2c1",
    "pIC50": "7.00 to 7.60"
  },
  {
    "molecule": "COc1ccc(CN2CC(C(=O)N3CCOCC3)Oc3ccc(C(=O)NO)cc32)cc1 (centres unmarked)",
    "pIC50": "7.00 to 7.60"
  },
  {
    "molecule": "CN(C)S(=O)(=O)c1ccc(CN2C(=O)COc3ccc(C(=O)NO)cc32)cc1",
    "pIC50": "≥ 7.60"
  }
]

Req: Answer with reported pIC50 of O=C(NO)c1ccc2c(c1)N(Cc1cccc(Cl)c1F)C(=O)CO2
Resp: ≥ 7.60

Req: Quick one: give measured pIC50 for O=C(NO)c1ccc2c(c1)N(Cc1ccc(F)c(C(F)(F)F)c1)C(=O)CO2
Resp: 7.00 to 7.60

Req: Query pIC50 for CC1(C)Oc2ccc(C(=O)NO)cc2N(Cc2c(Cl)cccc2Cl)C1=O
Resp: 7.00 to 7.60

Req: Identify pIC50 associated with the molecule COc1ccc(CN2C(=O)C(Cc3ccccc3)Oc3ccc(C(=O)NO)cc32)cc1 (centres unmarked)
Resp: ≥ 7.60

Req: Tell us which pIC50 value is on record for O=C(NO)c1ccc2c(c1)N(Cc1c(F)cccc1C(F)(F)F)C(=O)CO2
Resp: 7.00 to 7.60

Req: Identify measured pIC50 associated with Cc1ccc2nc(CN3C(=O)COc4ccc(C(=O)NO)cc43)cn2c1
Resp: 7.00 to 7.60

Req: Tell me pIC50 reported for O=C(NO)c1ccc2c(c1)N(Cc1nc3cc(Cl)ccc3o1)C(=O)CO2
Resp: ≥ 7.60

Req: Read off the recorded pIC50 for CC1(C)Oc2ccc(C(=O)NO)cc2N(Cc2nc(-c3ccccc3)sc2Cc2ccccc2)C1=O
Resp: < 6.00

Req: Please supply the value of reported pIC50 for the item O=C(NO)c1ccc2c(c1)N(Cc1cnc3c(c1)OCCO3)C(=O)CO2
Resp: 7.00 to 7.60

Req: Specify pIC50 for COc1ccc(F)c(CN2C(=O)COc3ccc(C(=O)NO)cc32)c1 and stop.
Resp: ≥ 7.60

Req: Quick one: give measured pIC50 for O=C(NO)c1ccc2c(c1)N(Cc1ccc3cnccc3c1)C(=O)CO2
Resp: ≥ 7.60

Req: Output pIC50 of CC1(C)Oc2ccc(C(=O)NO)cc2N(Cc2nc(-c3ccccc3)sc2Cl)C1=O
Resp: 7.00 to 7.60

Req: Supply measured pIC50 of CC1(C)Oc2ccc(C(=O)NO)cc2N(Cc2nc3ccc(F)cc3o2)C1=O in your reply.
Resp: ≥ 7.60

Req: Find the measured pIC50 of O=C(NO)c1ccc2c(c1)N(Cc1cc(F)ccc1C(F)(F)F)C(=O)CO2 and report it.
Resp: 7.00 to 7.60

Req: Provide measured pIC50 value, entry: CC1(C)Oc2ccc(C(=O)NO)cc2N(Cc2ccc(Cl)c(Cl)c2)C1=O
Resp: 7.00 to 7.60

Req: For the molecule CS(=O)(=O)c1cccc(CN2CCOc3ccc(C(=O)NO)cc32)c1 , report pIC50.
Resp: 7.00 to 7.60

====

# experimental.system: Full length human recombinant HDAC8 protein (Homo sapiens)
# Construct: Full length human recombinant HDAC8 protein was expressed in baculoviral system; made in house
# experimental.details: In vitro histone deacetylase assay: enzymatic HDAC8 electrophoretic mobility shift assay
# Type: biochemical
# conditions: electrophoretic mobility shift assay; enzyme 1 nM; 2 μM fluorescently labeled peptide substrate RHKK(Ac)-NH2; 25° C.; 12 concentrations; read-out: HDAC8 IC50
observable: IC50

The cases that follow already have their IC50 on record.
[
  {
    "compound": "C=CCN1C(=O)COc2ccc(C(=O)NO)cc21 [Compound I-41]",
    "experimental.system": "Full length human recombinant HDAC8 protein (Homo sapiens)",
    "IC50": "100 to 1000 nM"
  },
  {
    "compound": "COc1ccc(CN2CCS(=O)(=O)c3cc(C(=O)NO)ccc32)cc1 [Compound I-80]",
    "experimental.system": "Full length human recombinant HDAC8 protein (Homo sapiens)",
    "IC50": "100 to 1000 nM"
  },
  {
    "compound": "O=C(NO)c1ccc2c(c1)N(Cc1cccc(S(=O)(=O)C(F)(F)F)c1)C(=O)CO2 [Compound I-18]",
    "experimental.system": "Full length human recombinant HDAC8 protein (Homo sapiens)",
    "IC50": "100 to 1000 nM"
  }
]

Req: Supply measured IC50 of O=C(NO)c1ccc2c(c1)N(CCN1CCCS1(=O)=O)C(=O)CO2 [Compound I-52] in your reply.
Resp: 100 to 1000 nM

Req: Consider the compound O=C(NO)c1ccc2c(c1)N(C(=O)c1ccccc1)CCO2 [Compound I-140] . State its measured IC50.
Resp: > 1000 nM

Req: Answer with the recorded IC50 of O=C(NO)c1ccc2c(c1)N(Cc1ccc(F)cc1)C(=O)CO2 [Compound I-37] only.
Resp: < 25 nM

====

# experimental.system: Full length human recombinant HDAC8 protein (Homo sapiens, UniProt Q9BY41)
# Construct: Full length human recombinant HDAC8 protein was expressed in baculoviral system; made in house
# experimental.details: In vitro histone deacetylase assay: enzymatic HDAC8 electrophoretic mobility shift assay
# Format: biochemical
# conditions: electrophoretic mobility shift assay; enzyme 1 nM; 2 μM fluorescently labeled peptide substrate RHKK(Ac)-NH2; 25° C.; 12 concentrations; read-out: HDAC8 IC50
pIC50: −log10 of the molar value.
observable: pIC50

Look over these answered cases.
[
  {
    "molecule": "COCCn1c(N2CCCc3ccc(C(=O)NO)cc32)nc2ccccc21",
    "experimental.system": "Full length human recombinant HDAC8 protein (Homo sapiens, UniProt Q9BY41)",
    "pIC50": "6.00 to 7.00"
  },
  {
    "molecule": "O=C(NO)c1ccc2c(c1)N(CC1CCC1)C(=O)CO2",
    "experimental.system": "Full length human recombinant HDAC8 protein (Homo sapiens, UniProt Q9BY41)",
    "pIC50": "7.00 to 7.60"
  }
]

Req: Give the reported pIC50 for this molecule. O=C(NO)c1ccc2c(c1)N(Cc1cccc(C(F)(F)F)c1)CCO2
Resp: > 7.60

Req: Write down pIC50 measured for item Cc1ccccc1CN1CCOc2ccc(C(=O)NO)cc21
Resp: 7.00 to 7.60

Req: Look up and state reported pIC50 for Cc1ccc(CN2CCOc3ccc(C(=O)NO)cc32)cc1
Resp: 6.00 to 7.00

Req: Return reported pIC50. Input molecule: O=C(NO)c1ccc2c(c1)OC(C(=O)NCc1ccccc1)CN2Cc1ccccc1 (stereo not shown)
Resp: 6.00 to 7.00

Req: Give the reported value of pIC50 for this record: O=C(NO)c1ccc2c(c1)N(Cc1ccc(C(F)(F)F)cc1)C(=O)CO2
Resp: > 7.60

Req: Identify measured pIC50 corresponding to O=C(NO)c1ccc2c(c1)N(Cc1cccc(Cl)c1)CCO2
Resp: 7.00 to 7.60

Req: For the molecule COc1ccc(CN2C(=O)C(C(C)(C)C)Oc3ccc(C(=O)NO)cc32)cc1 (stereo not shown) , give its reported pIC50.
Resp: > 7.60

Req: Note down pIC50 recorded for CC1Oc2ccc(C(=O)NO)cc2N(Cc2ccc(S(C)(=O)=O)cc2)C1=O (stereo not shown)
Resp: > 7.60

Req: Return the recorded pIC50 value; entry: Cc1ccc(CN2C(=O)COc3ccc(C(=O)NO)cc32)c(C)c1
Resp: 7.00 to 7.60

Req: For O=C(NO)c1ccc2c(c1)N(Cc1ccc(SC(F)(F)F)cc1)C(=O)CO2 , write its pIC50.
Resp: > 7.60

Req: State its pIC50: CN1CCCC[C@H]1CN1C(=O)COc2ccc(C(=O)NO)cc21 (stereo in doubt)
Resp: < 6.00

Req: Provide measured pIC50 value, entry: COCCn1c(N2CCCc3cc(C(=O)NO)ccc32)nc2ccccc21
Resp: 6.00 to 7.00
